Target: hSTING(HAQ) (Homo sapiens, UniProt Q86WV6, G230A/H232R/R293Q/R71H)
Sequence (Q86WV6 whole entry R71H/G230A/H232R/R293Q): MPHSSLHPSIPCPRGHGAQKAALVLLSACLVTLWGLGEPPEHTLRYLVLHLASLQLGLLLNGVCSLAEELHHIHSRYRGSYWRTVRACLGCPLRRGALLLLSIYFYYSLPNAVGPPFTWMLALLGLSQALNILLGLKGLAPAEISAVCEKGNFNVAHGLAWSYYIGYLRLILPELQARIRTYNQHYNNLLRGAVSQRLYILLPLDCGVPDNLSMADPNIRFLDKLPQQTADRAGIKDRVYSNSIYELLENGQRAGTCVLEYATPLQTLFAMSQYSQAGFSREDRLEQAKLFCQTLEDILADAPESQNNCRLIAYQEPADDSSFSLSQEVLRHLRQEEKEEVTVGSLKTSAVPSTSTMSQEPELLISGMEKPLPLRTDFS
Experiment summary: Luciferase reporter assay in HEK293T-hSTING-Luciferase cells, HAQ polymorph
Condition details: HAQ polymorph of human STING, EC50 range class
pEC50: −log10 of the molar value. Structures can show the parent of a compound that is named as a salt.

{"Compound": "Cc1ccc(F)c(CN2C(=O)N(C)C(C)c3ccc(C(=O)NCc4c(F)cc(F)cc4F)cc32)n1 (stereo not drawn)", "pEC50": "5.00 to 6.00"}
{"Compound": "C[C@H]1c2ccc(C(=O)NCc3c(F)cc(F)cc3F)cc2N(Cc2c(F)ccc(F)c2Cl)C(=O)N1C", "pEC50": "> 6.00"}
{"Compound": "C[C@H]1c2ccc(C(=O)NCc3c(F)cc(F)cc3F)cc2N(Cc2c(F)ccc(OCCCO)c2Cl)C(=O)N1C", "pEC50": "> 6.00"}
{"Compound": "C[C@H]1c2ccc(C(=O)NCc3c(F)cc(F)cc3F)cc2N(Cc2cc(O)ccc2F)C(=O)N1C", "pEC50": "> 6.00"}
{"Compound": "C[C@H]1c2ccc(C(=O)NCc3c(F)cc(F)cc3F)cc2N(Cc2c(F)cccc2Cl)C(=O)N1C (single isomer, unassigned)", "pEC50": "> 6.00"}
{"Compound": "C[C@H]1c2ccc(C(=O)NCc3c(F)cc(F)cc3F)cc2N(Cc2cc(O)cc(F)c2F)C(=O)N1C", "pEC50": "> 6.00"}
{"Compound": "Cc1ccc(CNC(=O)c2ccc3c(c2)N(Cc2c(F)cccc2Cl)C(=O)N(C)C3C)o1 (stereo not drawn)", "pEC50": "5.00 to 6.00"}
{"Compound": "CNc1cccc(F)c1CN1C(=O)N(C)C(C)c2ccc(C(=O)NCc3c(F)cc(F)cc3F)cc21 (stereo not drawn)", "pEC50": "> 6.00"}
{"Compound": "COc1ccc(F)c(CN2C(=O)N(C)[C@@H](C)c3ccc(C(=O)NCc4c(F)cc(F)cc4F)cc32)c1Cl", "pEC50": "> 6.00"}
{"Compound": "C[C@H]1c2ccc(C(=O)NCc3c(F)cc(F)cc3F)cc2N(Cc2c(F)ccc(C(N)=O)c2F)C(=O)N1C", "pEC50": "> 6.00"}
{"Compound": "C[C@H]1c2ccc(C(=O)NCc3c(F)cc(F)cc3F)cc2N(Cc2c(O)ccc(F)c2F)C(=O)N1C", "pEC50": "> 6.00"}
{"Compound": "COc1cc(F)c(CNC(=O)c2ccc3c(c2)N(Cc2c(F)cccc2Cl)C(=O)N(C)[C@H]3C)c(F)c1", "pEC50": "> 6.00"}
{"Compound": "C[C@H]1c2ccc(C(=O)NCc3c(F)cc(O)cc3F)cc2N(Cc2c(F)cccc2Cl)C(=O)N1C", "pEC50": "> 6.00"}
{"Compound": "CC1c2ccc(C(=O)NCc3c(F)cc(F)cc3F)cc2N(Cc2c(F)cccc2OS(C)(=O)=O)C(=O)N1C (stereo not drawn)", "pEC50": "5.00 to 6.00"}
{"Compound": "C[C@H]1c2ccc(C(=O)NCc3c(F)cc(F)cc3F)cc2N(Cc2c(F)ccc(O)c2Cl)C(=O)N1C", "pEC50": "> 6.00"}
{"Compound": "CN1Cc2ccc(C(=O)NCc3c(F)cc(F)cc3F)cc2N(Cc2c(F)cccc2C#N)C1=O", "pEC50": "< 5.00"}
{"Compound": "Cc1cc(CN2C(=O)N(C)C(C)c3ccc(C(=O)NCc4c(F)cc(F)cc4F)cc32)ccn1 (stereo not drawn)", "pEC50": "> 6.00"}
{"Compound": "C[C@H]1c2ccc(C(=O)NCc3c(F)cc(F)cc3F)cc2N(Cc2c(N)ccc(F)c2F)C(=O)N1C", "pEC50": "> 6.00"}
{"Compound": "CC1c2ccc(C(=O)NCc3c(F)cc(F)cc3F)cc2N(Cc2c(F)cccc2N(C)C)C(=O)N1C (stereo not drawn)", "pEC50": "5.00 to 6.00"}
{"Compound": "C[C@H]1c2ccc(C(=O)NCc3c(F)cc(F)cc3F)cc2N(Cc2ncccc2F)C(=O)N1C", "pEC50": "5.00 to 6.00"}
{"Compound": "CC1c2ccc(C(=O)NCc3cc4ccccc4o3)cc2N(Cc2c(F)cccc2Cl)C(=O)N1C (stereo not drawn)", "pEC50": "5.00 to 6.00"}
{"Compound": "COc1cnc(C)c(F)c1CN1C(=O)N(C)[C@@H](C)c2ccc(C(=O)NCc3c(F)cc(F)cc3F)cc21", "pEC50": "> 6.00"}
{"Compound": "CC1c2ccc(C(=O)NCc3c(F)cc(F)cc3F)cc2N(Cc2c(F)cccc2F)C(=O)N1C (stereo not drawn)", "pEC50": "> 6.00"}
{"Compound": "C[C@H]1c2ccc(C(=O)NCc3c(F)cc(F)cc3F)cc2N(Cc2c(F)cncc2Br)C(=O)N1C", "pEC50": "> 6.00"}
{"Compound": "Cc1cc(CN2C(=O)N(C)Cc3ccc(C(=O)NCc4c(F)cc(F)cc4F)cc32)on1", "pEC50": "5.00 to 6.00"}
{"Compound": "C[C@H]1c2ccc(C(=O)NCc3c(F)cc(F)cc3F)cc2N(Cc2c(F)cccc2NCCO)C(=O)N1C [Example 264, hydrochloride]", "pEC50": "5.00 to 6.00"}
{"Compound": "COc1cccc(F)c1CN1C(=O)N(C)C(C)c2ccc(C(=O)NCc3c(F)cc(F)cc3F)cc21 (stereo not drawn) [Example 153]", "pEC50": "> 6.00"}
{"Compound": "Cc1ncc(CN2C(=O)N(C)Cc3ccc(C(=O)NCc4c(F)cc(F)cc4F)cc32)s1", "pEC50": "5.00 to 6.00"}
{"Compound": "COc1cccc(F)c1CN1C(=O)N(C)C(C)c2ccc(C(=O)NCc3c(F)cc(F)cc3F)cc21 (stereo not drawn) [Example 154]", "pEC50": "> 6.00"}
{"Compound": "Cc1cccc(F)c1CN1C(=O)N(C)C(C)c2ccc(C(=O)NCc3c(F)cc(F)cc3F)cc21 (stereo not drawn) [Example 162]", "pEC50": "> 6.00"}
